- system tested: UniProt P01116
- Sequence (P01116 1-188 isoform P01116-2): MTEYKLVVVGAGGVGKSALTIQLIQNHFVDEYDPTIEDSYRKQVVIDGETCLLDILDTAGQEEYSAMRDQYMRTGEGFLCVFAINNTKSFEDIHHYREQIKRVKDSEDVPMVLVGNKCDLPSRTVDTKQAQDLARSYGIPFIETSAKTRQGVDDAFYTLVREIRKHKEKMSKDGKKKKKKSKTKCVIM
pIC50: −log10 of the molar value.
pIC50 reference
measure: pIC50

1. CC1(C)CC[C@]2(C(=O)O)CC[C@]3(C)C(=CC[C@@H]4[C@@]5(C)CC[C@H](OC(=O)c6sccc6C(=O)O)C(C)(C)[C@@H]5CC[C@]43C)[C@@H]2C1 : 5.82
2. C=C(C)[C@@H]1CC[C@]2(C(=O)O)CC[C@]3(C)[C@H](CC[C@@H]4[C@@]5(C)CC[C@H](OC(=O)c6ccccc6C(=O)O)C(C)(C)[C@@H]5CC[C@]43C)[C@@H]12 : 4.82
3. CC1(C)CC[C@]2(C(=O)O)CC[C@]3(C)C(=CC[C@@H]4[C@@]5(C)CC[C@H](OC(=O)c6cc(F)c(F)cc6C(=O)O)C(C)(C)[C@@H]5CC[C@]43C)[C@@H]2C1 : 5.82
4. Cn1cnc(Cn2ccc3ccc(CNCc4[nH]c5ccccc5c4C4NC(=O)c5ccc(O)cc54)cc32)c1 (centres unmarked) [Compound 54, BI2852, reference compound] : 4.87
5. C=C(C)[C@@H]1CC[C@]2(COC(=O)CCC(=O)O)CC[C@]3(C)[C@H](CC[C@@H]4[C@@]5(C)CC[C@H](OC(=O)c6cc(F)c(F)cc6C(=O)O)C(C)(C)[C@@H]5CC[C@]43C)[C@@H]12 : 5.93
